system: UO-31 renal; assay: NCI tumour cell line growth inhibition, 48 h
*1 amine or outer side, *2 acyl side, *3 side chain or, on linkers, in order; H or OH if unused. Where a SMILES comes first, the peptide text is derived from it. [ ]: non-standard residue; d: D form. ξ: configuration not given here. X21 = CC[C@@H](C)C(N[*:1])C(=O)[*:2]; ξR = N=C(N)NCCCC(N)C(=O)O; ξI = CCC(C)C(N)C(=O)O; ξL = CC(C)CC(N)C(=O)O; ξK = NCCCCC(N)C(=O)O; ξV = CC(C)C(N)C(=O)O; ξA = CC(N)C(=O)O
readout kind: GI50

>>> value_measured("CCCN(CCSSCCNc1nc(N(C)O)nc(N(C)O)n1)c1nc(N(C)O)nc(N(C)O)n1")
"5.19 µM"
>>> value_measured("CCC(C)C1NC(=O)C(CC(C)C)NC(=O)C(C)NC(=O)C(C(C)C)NC(=O)C(CCCCN)NC(=O)C(CC(C)C)NC(=O)C(C(C)C)NC(=O)[C@H](C)NC(=O)C(C(C)CC)NC(=O)C(CCCN=C(N)N)NC(=O)C(CCCCN)NC(=O)C(CCCN=C(N)N)NC(=O)C(CCCCN)NC(=O)C([C@H](C)CC)NC(=O)C(CCCCN)NC1=O (stereo partly drawn) (cyclo(A[ξV][ξL][ξK][ξV][ξA][ξL][ξI][ξK][X21][ξK][ξR][ξK][ξR][ξI]))")
"1.37 µM"
>>> value_measured("CC(C)Nc1ncc2cc(Oc3ccc(F)cc3F)c(=O)n(C)c2n1")
"5.17 µM"
>>> value_measured("NC1CCC(N[C@@H]2C[C@H]2c2ccccc2)CC1 (stereo partly drawn)")
"67.4 µM"
>>> value_measured("N#Cc1c(N)nc(N2CCOCC2)c(C#N)c1-c1ccccc1Cl")
"14.5 µM"
>>> value_measured("C=C1C(=O)O[C@H]2[C@H]1CC/C(Cn1cc(-c3cc(C)c(C)cc3C)nn1)=C\\CC[C@@]1(C)O[C@@H]21")
"0.528 µM"
>>> value_measured("Clc1ccc(Nc2ccnc(NCCCNc3ccnc4cc(Cl)ccc34)n2)cc1")
"1.68 µM"
>>> value_measured("CNCCCNCCCN1C(=O)c2ccc3c4c(ccc(c24)C1=O)C(=O)N(CCCNCc1ccccc1OC)C3=O")
"5.88 µM"
>>> value_measured("COc1ccc2c(c1)/C(=N/OC(C)=O)c1c-2c(=O)[nH]c2ccccc12")
"11.1 µM"
>>> value_measured("O=C(COc1cccc(/C=C2\\CSc3ccccc3C2=O)c1)c1ccc(Cl)cc1")
"1.63 µM"
>>> value_measured("O=C1CCS/C(=N\\S(=O)(=O)c2ccc(N3N=C4c5ccccc5CC4C3c3cccs3)cc2)N1C(=O)c1ccccc1 (stereo not drawn)")
"30.7 µM"
>>> value_measured("CCSc1nnc(-c2ccc3ccccc3c2O)n1-c1ccc(Cl)cc1")
"3.31 µM"
>>> value_measured("Fc1ccc2[nH]cc(SSc3c[nH]c4ccc(F)cc34)c2c1")
"4.83 µM"

----------
Items are presented alongside their recorded TGI.
tested on: SNB-19 CNS; assay: NCI tumour cell line growth inhibition, 48 h
readout kind: TGI

>>> value_measured("O=C(O)C1CCCCC1c1c2ccc(=O)cc-2oc2cc(O)ccc12 (stereo unspecified)")
"> 100 µM"
>>> value_measured("NS(=O)(=O)c1nnc(NS(=O)(=O)c2ccccc2C(=O)O)s1")
"> 100 µM"
>>> value_measured("COC(=O)c1cc(C(=CCC[C@H]2CC[C@@]3(C)C(CCC4C3CC[C@@]3(C)C4CC[C@@H]3C(C)CCCC(C)C)C2)c2cc(Cl)c(OC(=O)c3ccccc3)c(C(=O)OC)c2)cc(Cl)c1OC(=O)c1ccccc1 (stereo partly specified)")
"> 10 µM"
>>> value_measured("CC(NC(C#N)CC12CC3CC(CC(C3)C1)C2)c1ccccc1 (stereo unspecified)")
"> 100 µM"
>>> value_measured("Cc1ccc(S(=O)(=O)NC(=O)NC(Cc2ccc(O)c(O)c2)C(=O)O)cc1 (stereo unspecified)")
"> 100 µM"
>>> value_measured("COc1ccc2c(c1)/C(=C/c1cc(OC)c(OC)c(OC)c1)C(=O)N2C")
"> 27.7 µM"
